Recorded measurements of apparent Kd (screen), one per entry
# test-target: T1, TNFR1 (Homo sapiens, UniProt P19438)
# T1 chain: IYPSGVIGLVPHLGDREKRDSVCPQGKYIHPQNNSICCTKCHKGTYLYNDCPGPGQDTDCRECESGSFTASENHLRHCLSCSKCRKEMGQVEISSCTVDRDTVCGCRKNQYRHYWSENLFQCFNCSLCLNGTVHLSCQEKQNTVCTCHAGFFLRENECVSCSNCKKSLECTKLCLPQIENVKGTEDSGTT
# procedure-details: yeast display SC50
quantity-name: apparent Kd (screen) (nM)

1) E10I (designed binder) MTLQELLREIALRRAEAEAFRYALELLAEKFPEQKEYLLDLAEEIESQIRSLSGVDVEDVRKFLDKEWAWVKELLAEHPAELAEVEAARAARLAELRAEVEAKVAA = 1.16
2) V71I (designed binder) MTLQELLREEALRRAEAEAFRYALELLAEKFPEQKEYLLDLAEEIESQIRSLSGVDVEDVRKFLDKEWAWIKELLAEHPAELAEVEAARAARLAELRAEVEAKVAA = 0.539
3) V55K (designed binder) MTLQELLREEALRRAEAEAFRYALELLAEKFPEQKEYLLDLAEEIESQIRSLSGKDVEDVRKFLDKEWAWVKELLAEHPAELAEVEAARAARLAELRAEVEAKVAA = 16.7
4) D59R (designed binder) MTLQELLREEALRRAEAEAFRYALELLAEKFPEQKEYLLDLAEEIESQIRSLSGVDVERVRKFLDKEWAWVKELLAEHPAELAEVEAARAARLAELRAEVEAKVAA = 0.539
5) L12Q (designed binder) MTLQELLREEAQRRAEAEAFRYALELLAEKFPEQKEYLLDLAEEIESQIRSLSGVDVEDVRKFLDKEWAWVKELLAEHPAELAEVEAARAARLAELRAEVEAKVAA = 0.79
6) E25D (designed binder) MTLQELLREEALRRAEAEAFRYALDLLAEKFPEQKEYLLDLAEEIESQIRSLSGVDVEDVRKFLDKEWAWVKELLAEHPAELAEVEAARAARLAELRAEVEAKVAA = 1.27
7) R92L (designed binder) MTLQELLREEALRRAEAEAFRYALELLAEKFPEQKEYLLDLAEEIESQIRSLSGVDVEDVRKFLDKEWAWVKELLAEHPAELAEVEAARAALLAELRAEVEAKVAA = 0.446
8) S47L (designed binder) MTLQELLREEALRRAEAEAFRYALELLAEKFPEQKEYLLDLAEEIELQIRSLSGVDVEDVRKFLDKEWAWVKELLAEHPAELAEVEAARAARLAELRAEVEAKVAA = 0.653
